The entries that follow carry pIC50 values tested on Dipeptidyl peptidase 4 (Rattus norvegicus), drawn from several published reports.
Sequence (P14740 whole entry): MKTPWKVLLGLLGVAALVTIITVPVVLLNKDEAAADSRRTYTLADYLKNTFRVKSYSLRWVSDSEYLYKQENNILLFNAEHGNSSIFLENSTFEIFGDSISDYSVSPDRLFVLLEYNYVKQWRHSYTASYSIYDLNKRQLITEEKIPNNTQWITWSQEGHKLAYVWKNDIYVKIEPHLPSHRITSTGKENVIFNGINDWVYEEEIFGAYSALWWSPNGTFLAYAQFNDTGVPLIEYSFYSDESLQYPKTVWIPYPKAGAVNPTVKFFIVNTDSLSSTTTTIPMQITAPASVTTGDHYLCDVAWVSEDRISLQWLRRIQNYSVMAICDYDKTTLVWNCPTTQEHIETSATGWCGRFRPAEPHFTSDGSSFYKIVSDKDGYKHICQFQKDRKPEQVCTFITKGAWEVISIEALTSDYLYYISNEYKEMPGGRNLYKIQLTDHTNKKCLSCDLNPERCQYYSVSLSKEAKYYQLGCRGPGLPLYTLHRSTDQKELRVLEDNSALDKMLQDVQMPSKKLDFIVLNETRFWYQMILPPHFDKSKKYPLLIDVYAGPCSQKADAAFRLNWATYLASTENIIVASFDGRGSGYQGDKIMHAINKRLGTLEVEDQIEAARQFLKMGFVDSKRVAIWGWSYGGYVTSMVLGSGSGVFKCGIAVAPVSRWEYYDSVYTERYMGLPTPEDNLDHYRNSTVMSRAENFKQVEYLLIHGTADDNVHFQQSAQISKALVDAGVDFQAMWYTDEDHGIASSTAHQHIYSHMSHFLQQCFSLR
Keep in mind that pIC50 stands for -log10 of concentration in molar terms.

# annotated cases, reported pIC50 shown
O=C(CNC1CCCCC1)N1CCCN1C(=O)Nc1cccc([N+](=O)[O-])c1	5.34
CCC(C)[C@H](N)C(=O)N1CCCN1C(=O)Nc1cccc([N+](=O)[O-])c1 (stereo partly specified)	5.81
N#CC1CC=NN1C(=O)[C@H](CCCCN)NC(=O)OCc1ccccc1 (stereo partly specified)	6.18
N#CC1CC=NN1C(=O)CNC1CCCC1 (stereo unspecified)	5.89
CC(C)C[C@H](N)C(=O)N1N=CCC1C#N (stereo partly specified)	5.37

Q) Bench note: what pIC50 did CCOC(=O)c1ccc(NC(=O)N2CCCN2C(=O)[C@@H](N)C(C)CC)cc1 (stereo partly specified) show?
A) 5.41

Q) Bench note: what pIC50 did CCC(C)[C@H](N)C(=O)N1CCCN1C(=O)Nc1ccc(Cl)c(Cl)c1 (stereo partly specified) show?
A) 5.25

Q) Bench note: what pIC50 did `COc1ccc(N[C@@H]2CN[C@H](C(=O)N3CCC[C@H]3C#N)C2)cc1` show?
A) 9.55

Q) Bench note: what pIC50 did C[C@@H](N)C(=O)N1N=CCC1C#N (stereo partly specified) show?
A) 5.92

Q) Bench note: what pIC50 did `COc1ccc(N[C@@H]2CN[C@H](C(=O)N3CCC[C@H]3C#N)C2)cc1OC` show?
A) 9.62

Q) Bench note: what pIC50 did `N#Cc1ccc(NCCNCC(=O)N2N=CC[C@@H]2C#N)nc1` show?
A) 5.28
